# Tested Target: human brain-derived dopamine D4 receptor (Homo sapiens, UniProt P21917)
# Construct: expressed in transfected cells; host or cells: CHO (CHO-K1) or HEK293 cells
# Sequence (P21917 1-419): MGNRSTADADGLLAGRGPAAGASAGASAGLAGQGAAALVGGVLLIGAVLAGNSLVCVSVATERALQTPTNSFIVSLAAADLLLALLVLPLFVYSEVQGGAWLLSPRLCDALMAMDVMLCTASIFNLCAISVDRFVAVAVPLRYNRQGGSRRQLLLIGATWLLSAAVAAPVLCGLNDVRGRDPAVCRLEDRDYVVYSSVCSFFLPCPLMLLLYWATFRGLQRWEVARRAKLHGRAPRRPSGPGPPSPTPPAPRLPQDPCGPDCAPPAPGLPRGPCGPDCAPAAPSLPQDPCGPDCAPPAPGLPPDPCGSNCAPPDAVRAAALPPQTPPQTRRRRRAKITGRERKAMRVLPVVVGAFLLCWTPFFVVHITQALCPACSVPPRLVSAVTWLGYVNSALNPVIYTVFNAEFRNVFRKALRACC
# Procedure Details: Agonistic activity in G protein dependent pathway of dopamine D4 receptor (aequorin intracellular calcium luminescence, FDSS)
# Type: cell-based
# Settings: read-out: Maximal activity on D4 receptor (%)
Listed here are compounds together with their documented Emax.
Please format your answer as a value with the unit trailing.

Look over these answered cases.
Compound: Cc1ncc(CN2CCn3nc(-c4ncccc4C)c(C)c3C2)cn1 [Example 116]
Tested Target: human brain-derived dopamine D4 receptor (Homo sapiens, UniProt P21917)
Emax: 67%
--
Compound: Cc1cccc(CN2CCn3nc(-c4ncccc4F)cc3C2)n1 [Example 161]
Tested Target: human brain-derived dopamine D4 receptor (Homo sapiens, UniProt P21917)
Emax: 74%
--
Compound: Cc1cccnc1-c1cc2n(n1)CCN(Cc1ccc(CF)cn1)C2 [Example 123]
Tested Target: human brain-derived dopamine D4 receptor (Homo sapiens, UniProt P21917)
Emax: 65%
--
Compound: Cc1cccnc1-c1cc2n(n1)CCN(Cc1ccc(OC(F)(F)F)cc1C#N)C2 [Example 52]
Tested Target: human brain-derived dopamine D4 receptor (Homo sapiens, UniProt P21917)
Emax: 58%

IN: What does the data say about its Emax? Entry: Cc1n[nH]c2ccc(CN3CCn4nc(-c5ccccn5)cc4C3)cc12 [Example 37]
OUT: 54%

----------
Items are presented alongside their recorded log10(EC50).
# Tested Target: human brain-derived dopamine D4 receptor (Homo sapiens, UniProt P21917)
# Procedure Details: Agonistic activity in G protein dependent pathway of dopamine D4 receptor (aequorin intracellular calcium luminescence, FDSS)
# Settings: concentration required to achieve a 50% response of Emax; CHO-K1 or HEK293 cells transfected with D4 receptor
# log10 transformed; quantity=EC50; unit=nM

Solved cases below.
Compound Structure String: Cc1cccnc1-c1cc2n(n1)CCN(Cc1cccc(CF)n1)C2
log10(EC50): 1.00

Compound Structure String: Fc1cccnc1-c1cc2n(n1)CCN(Cc1ccc(C(F)(F)F)cn1)C2
log10(EC50): 1.74

Compound Structure String: Cc1c(-c2ncccc2F)nn2c1CN(Cc1ccc(C(F)F)cn1)CC2
log10(EC50): 1.81

Compound Structure String: Cn1nc(CN2CCn3nc(-c4ncccc4F)cc3C2)c2ccccc21
log10(EC50): 1.23

Compound Structure String: Cc1cccnc1-c1cc2n(n1)CCN(Cc1ccc(CF)cc1)C2
log10(EC50): 1.28

IN: Request - read-out log10(EC50) | tested on human brain-derived dopamine D4 receptor (Homo sapiens, UniProt P21917) | compound Cc1cccnc1-c1cc2n(n1)CCN(Cc1ccc(CO)cn1)C2
OUT: 2.10

IN: Recorded log10(EC50) for N#Cc1ccc(CN2CCn3nc(-c4ncccc4F)cc3C2)cc1 with human brain-derived dopamine D4 receptor (Homo sapiens, UniProt P21917), please?
OUT: 1.77

----------
# Tested Target: human brain-derived dopamine D4 receptor (Homo sapiens, UniProt P21917)
# Construct: expressed in transfected cells; host or cells: CHO (CHO-K1) or HEK293 cells
# Procedure Details: Agonistic activity in G protein dependent pathway of dopamine D4 receptor (aequorin intracellular calcium luminescence, FDSS)
# Format: cell-based
# Settings: read-out: Maximal activity on D4 receptor (%)
Reported Emax values follow for various compounds
Entry rule: numbers only, all in %.

Compound Structure String: Cc1cccnc1-c1cc2n(n1)CCN(Cc1cnc(C)c(Cl)c1)C2
Tested Target: human brain-derived dopamine D4 receptor (Homo sapiens, UniProt P21917)
Property Measured: Emax
Obs Value: 49
--
Compound Structure String: c1ccc(-c2cc3n(n2)CCN(Cc2n[nH]c4ccccc24)C3)nc1
Tested Target: human brain-derived dopamine D4 receptor (Homo sapiens, UniProt P21917)
Property Measured: Emax
Obs Value: 60
--
Compound Structure String: Cc1cccnc1-c1cc2n(n1)CCN(Cc1cnc(C(F)(F)F)nc1)C2
Tested Target: human brain-derived dopamine D4 receptor (Homo sapiens, UniProt P21917)
Property Measured: Emax
Obs Value: 35
--
Compound Structure String: Cc1cnc(CN2CCn3nc(-c4ncccc4C)c(C)c3C2)cn1
Tested Target: human brain-derived dopamine D4 receptor (Homo sapiens, UniProt P21917)
Property Measured: Emax
Obs Value: 71
--
Compound Structure String: Cc1cccnc1-c1cc2n(n1)CCN(Cc1ccc(C(F)F)cn1)C2
Tested Target: human brain-derived dopamine D4 receptor (Homo sapiens, UniProt P21917)
Property Measured: Emax
Obs Value: 47

IN: Query for human brain-derived dopamine D4 receptor (Homo sapiens, UniProt P21917): what Emax does the record show for Cc1ccc(CN2CCn3nc(-c4ncccc4F)c(C)c3C2)nc1 ?
OUT: 98

IN: Item: Cc1c(-c2ncccc2F)nn2c1CN(Cc1ccc(C(F)(F)F)nc1)CC2 Test system: human brain-derived dopamine D4 receptor (Homo sapiens, UniProt P21917) Read-out: Emax Value: ?
OUT: 89

IN: Give human brain-derived dopamine D4 receptor (Homo sapiens, UniProt P21917) Emax for Fc1cccc2[nH]nc(CN3CCn4nc(-c5ccccn5)cc4C3)c12
OUT: 48

IN: Form entry - test system: human brain-derived dopamine D4 receptor (Homo sapiens, UniProt P21917); read-out: Emax; compound: Cc1cccnc1-c1cc2n(n1)CCN(Cc1ccc(C(F)(F)F)cc1F)C2
OUT: 65

----------
# Tested Target: human brain-derived dopamine D4 receptor (Homo sapiens, UniProt P21917)
# Procedure Details: Agonistic activity in G protein dependent pathway of dopamine D4 receptor (aequorin intracellular calcium luminescence, FDSS)
# Settings: concentration required to achieve a 50% response of Emax; CHO-K1 or HEK293 cells transfected with D4 receptor
Property Measured: EC50 (nM)
Quick note: give the figure in nM, leave out the unit.

Answered cases to consult:
Compound: Fc1cccnc1-c1cc2n(n1)CCN(Cc1ccc(C(F)(F)F)nc1)C2 [Example 162]
Tested Target: human brain-derived dopamine D4 receptor (Homo sapiens, UniProt P21917)
Property Measured: EC50
Obs Value: 59
--
Compound: Cc1cccnc1-c1cc2n(n1)CCN(Cc1cc3c(cn1)CCC3)C2 [Example 181]
Tested Target: human brain-derived dopamine D4 receptor (Homo sapiens, UniProt P21917)
Property Measured: EC50
Obs Value: 43
--
Compound: c1ccc(-c2cc3n(n2)CCN(Cc2ccc4cn[nH]c4c2)C3)nc1 [Example 15]
Tested Target: human brain-derived dopamine D4 receptor (Homo sapiens, UniProt P21917)
Property Measured: EC50
Obs Value: 9.2
--
Compound: Cc1cccnc1-c1cc2n(n1)CCN(Cc1ccc(Cl)c(C)n1)C2 [Example 178]
Tested Target: human brain-derived dopamine D4 receptor (Homo sapiens, UniProt P21917)
Property Measured: EC50
Obs Value: 32

IN: Which EC50 is reported with human brain-derived dopamine D4 receptor (Homo sapiens, UniProt P21917) for this entry: Cc1ncc(CN2CCn3nc(-c4ncccc4F)cc3C2)c(N)n1 [Example 46] ?
OUT: 45

----------
# Tested Target: human brain-derived dopamine D4 receptor (Homo sapiens, UniProt P21917)
# Construct: expressed in transfected cells; host or cells: CHO (CHO-K1) or HEK293 cells
# Procedure Details: Agonistic activity in G protein dependent pathway of dopamine D4 receptor (aequorin intracellular calcium luminescence, FDSS)
# Type: cell-based
# Settings: read-out: Maximal activity on D4 receptor (%)
Property Measured: Emax (%)
Answer in %, number only, no unit symbol.

Solved cases below.
Compound: Cc1cccnc1-c1cc2n(n1)CCN(Cc1ncn3ccccc13)C2 [Example 96]
Emax (%): 57

Compound: Cc1ncc(CN2CCn3nc(-c4ncccc4F)cc3C2)c(N)n1 [Example 46]
Emax (%): 59

Compound: Cc1ccc(CN2CCn3nc(-c4ccccn4)cc3C2)c(N)n1 [Example 19]
Emax (%): 63

Compound: COc1ccccc1-c1cc2n(n1)CCN(Cc1ccc(F)c(C#N)c1)C2 [Example 18]
Emax (%): 83

Now for a further compound.
IN: For the compound Cc1cccnc1-c1cc2n(n1)CCN(Cc1ccc(CO)cn1)C2 [Example 157] , what Emax is on record?
OUT: 50
